- Study System: T1, biotinylated human IL-33 (human, UniProt O95760 112-270, biotin-labeled with EZ-LINK NHS-PEG4-Biotin)
- T1 construct: also called biotin-huIL-33
- T1 sequence (looked up): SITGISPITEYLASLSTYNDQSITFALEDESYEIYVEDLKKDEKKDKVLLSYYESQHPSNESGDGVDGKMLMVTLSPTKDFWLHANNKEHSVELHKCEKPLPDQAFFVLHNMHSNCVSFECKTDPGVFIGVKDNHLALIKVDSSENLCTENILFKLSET
- Assay Explanation: competitive ELISA, biotin-huIL-33 to coated hST2-Fc
Known pIC50 of a selection of binders
Scale explanation: pIC50 corresponds to minus log10 of a concentration expressed in moles per litre.

10C12.38.H6.87Y.58I IgG4 (antibody, V domains shown, also called anti-IL33 10C12.38.H6.87Y.58I IgG4) VH: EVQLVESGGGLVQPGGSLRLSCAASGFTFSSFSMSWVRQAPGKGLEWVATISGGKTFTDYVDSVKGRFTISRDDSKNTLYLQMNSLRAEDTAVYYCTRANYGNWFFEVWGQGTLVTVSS VL: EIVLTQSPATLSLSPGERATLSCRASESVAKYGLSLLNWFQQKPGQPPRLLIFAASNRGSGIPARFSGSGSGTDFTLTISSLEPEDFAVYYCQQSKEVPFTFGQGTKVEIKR :: 10.68

[in] Identify measured pIC50 associated with H4H9640P (antibody, IgG4, V domains shown, also called RG6) VH: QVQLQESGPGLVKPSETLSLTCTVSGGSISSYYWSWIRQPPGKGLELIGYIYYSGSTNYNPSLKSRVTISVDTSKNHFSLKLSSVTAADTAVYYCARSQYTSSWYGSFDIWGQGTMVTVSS VL: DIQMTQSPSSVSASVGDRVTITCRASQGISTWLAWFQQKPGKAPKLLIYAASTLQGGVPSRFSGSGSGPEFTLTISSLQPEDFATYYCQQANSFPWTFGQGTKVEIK
[out] 9.72
